assay explanation: Nitric oxide release profile of NONOates (nitric oxide analyzer)
Assay type: physicochemical
details: 1% survanta, half-life (NO release)
readout name: half-life (h)
Give bare numbers, in h.

### Prompt I am curious: what half-life value has been reported for CC(C)CCC[C@@H](C)[C@H]1CC[C@H]2[C@@H]3CC=C4C[C@@H](OC(=O)CCN(CCCCN)[N+]([O-])=NO)CC[C@]4(C)[C@H]3CC[C@]12C [CPNO, Cholesterylputreanine-NONOate] ?
### Response 62

* * *

assay explanation: Nitric oxide release profile of NONOates (nitric oxide analyzer)
Format: physicochemical
details: 10% tween 20, half-life (NO release)
readout name: half-life (h)
Give bare numbers, in h.

### Prompt I am curious: what half-life value has been reported for CC(C)CCC[C@@H](C)[C@H]1CC[C@H]2[C@@H]3CC=C4C[C@@H](OC(=O)CCN(CCCCN)[N+]([O-])=NO)CC[C@]4(C)[C@H]3CC[C@]12C [CPNO, Cholesterylputreanine-NONOate] ?
### Response 72

* * *

assay explanation: Nitric oxide release profile of NONOates (nitric oxide analyzer)
Format: physicochemical
details: pbs, pH 7.4, half-life (NO release)
readout name: half-life (h)
Numbers only, in h.

### Prompt What value of measured half-life is listed for CC(C)CCC[C@@H](C)[C@H]1CC[C@H]2[C@@H]3CC=C4C[C@@H](OC(=O)CCN(CCCCN)[N+]([O-])=NO)CC[C@]4(C)[C@H]3CC[C@]12C [CPNO, Cholesterylputreanine-NONOate] ?
### Response 60

* * *

assay explanation: Nitric oxide release profile of NONOates (nitric oxide analyzer)
Type: physicochemical
details: 5% tween 20, half-life (NO release)
readout name: half-life (h)
One number for each entry, in h.

### Prompt What value of half-life has been reported for the following compound? CC(C)CCC[C@@H](C)[C@H]1CC[C@H]2[C@@H]3CC=C4C[C@@H](OC(=O)CCN(CCCCN)[N+]([O-])=NO)CC[C@]4(C)[C@H]3CC[C@]12C [CPNO, Cholesterylputreanine-NONOate]
### Response 104
